Provenance of the data: patent US20040006236A1

- studySystem: ICAM-1 binding to immobilized Mac-1 (Homo sapiens, UniProt P05107+P11215)
- Construct: made in house; host or cells: transfected 293 cells (Mac-1)
- Sequence (P05107 23-769, other chains not shown): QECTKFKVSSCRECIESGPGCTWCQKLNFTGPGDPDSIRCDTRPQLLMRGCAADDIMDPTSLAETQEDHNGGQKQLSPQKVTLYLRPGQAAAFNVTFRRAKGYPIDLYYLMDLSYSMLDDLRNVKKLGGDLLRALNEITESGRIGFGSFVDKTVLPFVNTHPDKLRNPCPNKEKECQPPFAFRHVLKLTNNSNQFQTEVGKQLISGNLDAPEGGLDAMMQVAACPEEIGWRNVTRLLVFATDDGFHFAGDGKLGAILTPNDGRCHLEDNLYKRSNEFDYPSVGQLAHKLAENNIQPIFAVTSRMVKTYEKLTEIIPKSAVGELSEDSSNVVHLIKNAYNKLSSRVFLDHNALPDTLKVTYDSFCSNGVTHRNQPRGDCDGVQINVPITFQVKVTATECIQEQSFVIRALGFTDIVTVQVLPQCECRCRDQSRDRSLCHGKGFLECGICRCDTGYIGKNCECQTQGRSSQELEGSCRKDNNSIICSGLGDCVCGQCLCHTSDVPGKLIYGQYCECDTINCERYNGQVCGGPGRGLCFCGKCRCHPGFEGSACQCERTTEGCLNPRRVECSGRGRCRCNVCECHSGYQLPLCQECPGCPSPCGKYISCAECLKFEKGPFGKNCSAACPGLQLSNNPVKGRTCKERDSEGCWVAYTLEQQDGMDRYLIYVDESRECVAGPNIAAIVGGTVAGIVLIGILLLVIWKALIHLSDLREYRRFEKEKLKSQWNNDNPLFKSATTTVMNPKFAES
- experimentalDetails: Mac-1/ICAM-1 screening assay (solid-phase ELISA)
- recordedConditions: read-out: Mac-1/ICAM-1 Protein-Protein Assay IC50
- Procedure: (b) Mac-1/ICAM-1 screening test: Mac-1/ICAM-1 antagonist activity, defined as the ability to compete with ICAM-1 binding to immobilized Mac-1, was quantitated by a solid-phase ELISA. Membrane-bound Mac-1 derived from transfected 293 cells was coated onto 96-well microtiter plates (50 μL/well, 3 μg/mL Mac-1 in 20 mM Hepes, pH 7.2/0.14 M NaCl/1 mM MnCl2) overnight at 4° C. […] The reaction was stopped with 1 M H3PO4 (100 μL/well) and the plates were read at 450 nm. […]
readoutKind: IC50 (nM)
Give the number; nM is assumed, so skip it.

Query: Please look up its IC50: COc1cc(C(=O)NC[C@H](NC(=O)c2ccc(C(=O)NCc3cccc(O)c3)cc2Cl)C(=O)O)cc(OC)c1OC [Example 147]
Result: 119

Query: Could you tell me which IC50 is on file for O=C(NCc1cccc(O)c1)c1ccc(C(=O)N[C@@H](CNC(=O)c2cccc(C(F)(F)F)c2)C(=O)O)c(Cl)c1 [Example 146] ?
Result: 27

Query: // lookup IC50 for O=C(NCc1cccc(O)c1)c1ccc(C(=O)N[C@@H](CNC(=O)c2cccnc2Cl)C(=O)O)c(Cl)c1 [Example 166]
Result: 68

Query: Name the reported IC50 value associated with the compound O=C(NCc1cccc(O)c1)c1ccc(C(=O)N[C@@H](CNC(=O)c2cccc(F)c2)C(=O)O)c(Cl)c1 [Example 131]
Result: 9.7

Query: Fill blank: measured IC50 of the compound NS(=O)(=O)c1ccc(C(=O)NC[C@H](NC(=O)c2ccc(C(=O)NCc3cccc(O)c3)cc2Cl)C(=O)O)cc1 [Example 119] is ____.
Result: 26

Query: Need IC50, item Cc1nnsc1C(=O)NC[C@H](NC(=O)c1ccc(C(=O)NCc2cccc(O)c2)cc1Cl)C(=O)O [Example 255]
Result: 41

Query: Query (compound): O=C(NCc1cccc(O)c1)c1ccc(C(=O)N[C@@H](CNC(=O)c2cnc3ccccc3c2)C(=O)O)c(Cl)c1 [Example 183] ; field requested: IC50
Result: 222
